- Test system: platelet
- protocol_details: Blood Platelet Agglutination Action
- Assay type: cell-based, male Japanese white rabbit
- details: Oryctolagus cuniculus, from agglutination curve
endpoint_label: EC50 (µM)

1. CCCCCCCCCCCCCCCCOCC(COP(=O)([O-])OC1CC[N+](C)(C)C1)OC(C)=O (stereo not shown)
0.018

###

Quick list: ED (50 mmHg reduction) per entry.
- System: blood pressure
- protocol_details: Blood Pressure Reducing Action: Intravenous Injection
- Format: in vivo, Male Wister rats
- details: iv, anesthetized rat, from dose-response curve; read-out: MABP50 (dose required for reducing average blood pressure by 50 mmHg)
endpoint_label: ED (50 mmHg reduction)

1) CCCCCCCCCCCCCCCCOC(C)C(COP(=O)([O-])OC1CC[N+](C)(C)C1)OC(C)=O (stereo not shown)
8.5 µg/kg
2) CCCCCCCCCCCCCCCCOCC(COP(=O)([O-])OC1CCC[N+](C)(C)C1)OC(C)=O (stereo not shown)
0.013 µg/kg
3) CCCCCCCCCCCCCCCCOC(C)C(COP(=O)([O-])OC1CC[N+](C)(C)CC1)OC(C)=O (stereo not shown)
8.6 µg/kg
4) CCCCCCCCCCCCCCCCOCC(COP(=O)([O-])OC1CC[N+](C)(C)CC1)OC(C)=O (stereo not shown)
0.058 µg/kg
5) CCCCCCCCCCCCCCCCOCC(COP(=O)([O-])OC1CC[N+](C)(C)C1)OC(C)=O (stereo not shown)
0.021 µg/kg
6) CCCCCCCCCCCCCCCCOCC(OC(C)=O)C(OP(=O)([O-])OC1CC[N+](C)(C)C1)C(C)C (stereo not shown)
48 µg/kg
7) CCCCCCCCCCCCCCCCOC(C)C(COP(=O)([O-])OC1CCC[N+](C)(C)C1)OC(C)=O (stereo not shown)
0.34 µg/kg

###

- System: platelet
- protocol_details: Blood Platelet Agglutination Action
- Format: cell-based, male Japanese white rabbit
- details: Oryctolagus cuniculus, from agglutination curve, table
# log10(EC50) per record follows
endpoint_label: log10(EC50) (log10 of the value in nM)

1. CCCCCCCCCCCCCCCCOCC(COP(=O)([O-])OC1CCC[N+](C)(C)C1)OC(C)=O (stereo not drawn)
-0.22
2. CCCCCCCCCCCCCCCCOCC(OC(C)=O)C(OP(=O)([O-])OC1CC[N+](C)(C)C1)C(C)C (stereo not drawn)
3.70
3. CCCCCCCCCCCCCCCCOC(C)C(COP(=O)([O-])OC1CC[N+](C)(C)CC1)OC(C)=O (stereo not drawn)
2.80
4. CCCCCCCCCCCCCCCCOC(C)C(COP(=O)([O-])OC1CC[N+](C)(C)C1)OC(C)=O (stereo not drawn)
2.60
5. CCCCCCCCCCCCCCCCOC(C)C(COP(=O)([O-])OC1CCC[N+](C)(C)C1)OC(C)=O (stereo not drawn)
1.34
6. CCCCCCCCCCCCCCCCOCC(COP(=O)([O-])OC1CC[N+](C)(C)CC1)OC(C)=O (stereo not drawn)
0.90
